Item-by-item account of CC50 at 3 days
test: in vitro; conditions: human
MEASURE NAME: CC50 at 3 days

smiles_string=C[C@@H]1c2ccccc2CCN1C(=O)c1cc(C2CC2)c2nc(-c3ccc([C@H]4C[C@@H]4C(=O)O)cc3F)cn2n1 measure_name="CC50 at 3 days" result="51.5 µM"
smiles_string=C[C@@H]1c2ccccc2CCN1C(=O)c1cc(C2CC2)c2nc(-c3ccc(N4CC[C@H](C(N)=O)C4)nc3F)cn2c1 measure_name="CC50 at 3 days" result="37.4 µM"
smiles_string=Cc1c(-c2ccc(N3CC[C@H](C(N)=O)C3)cc2F)nc2c(C3CC3)cc(C(=O)N3CCc4ccccc4[C@H]3C)cn12 measure_name="CC50 at 3 days" result="35 µM"
